Target: T1, 4H370-bH
T1 chain: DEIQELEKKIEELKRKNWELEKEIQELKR
Assay: two-hybrid library CCNG1;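 further: natural log of median RNA to DNA barcode read ratio; higher means stronger binding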
Threshold check on interaction score: strictly below -0.3 is label 1; on or above -0.3 is label 0.

Q: Item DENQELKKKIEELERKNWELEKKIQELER [4H1845-bH] : interaction score beneath -0.3, strictly?
Result: label 1

Q: Input DKNQELEKENEELKRKIWELEKEIQELER [4H3297-bH] ; condition: interaction score strictly below -0.3. Does it hold?
Result: label 0

Q: State whether -0.3 exceeds interaction score recorded for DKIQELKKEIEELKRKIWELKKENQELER [4H2667-bH] .
Result: label 0

Q: Is the reported interaction score for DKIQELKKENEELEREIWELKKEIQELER [4H2697-bH] strictly below -0.3?
Result: label 1

Q: interaction score under -0.3? Item: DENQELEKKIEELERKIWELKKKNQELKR [4H1328-bH]
Result: label 1

Q: Does the reported interaction score of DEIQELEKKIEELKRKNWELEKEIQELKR [4H370-bH] stay below -0.3?
Result: label 0

Q: Say whether its interaction score is strictly beneath -0.3. Entry: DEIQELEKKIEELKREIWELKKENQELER [4H331-bH]
Result: label 1

Q: I'd appreciate it if you could check whether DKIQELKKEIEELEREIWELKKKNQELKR [4H2576-bH] has interaction score smaller than -0.3.
Result: label 0

Q: Does this binder meet the criterion interaction score < -0.3? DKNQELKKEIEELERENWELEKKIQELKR [4H3606-bH]
Result: label 0

Q: Just wondering, is interaction score of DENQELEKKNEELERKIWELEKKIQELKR [4H1446-bH] below -0.3?
Result: label 1

Q: Just wondering, is interaction score of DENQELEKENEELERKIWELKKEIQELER [4H1193-bH] below -0.3?
Result: label 1

Q: Determine if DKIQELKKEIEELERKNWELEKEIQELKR [4H2610-bH] shows interaction score strictly lower than -0.3.
Result: label 0

Q: For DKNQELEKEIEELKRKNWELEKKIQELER [4H3189-bH] , is the recorded interaction score below the cut-off of -0.3?
Result: label 0

Q: Lab note: interaction score threshold -0.3. Does this binder come in strictly under it? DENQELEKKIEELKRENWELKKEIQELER [4H1369-bH]
Result: label 1
